target: PPAR γ (Mus musculus, UniProt P37238); construct: pCMX-Gal-mPPAR γ LBD plasmids; expressed in transfected cells; host or cells: 293T cells (ATCC); assay: Dual-luciferase reporter gene assay, PPAR γ transcriptional activity in 293T cells; type: cell-based; details: 293T cells, luciferase reporter, 24 hours incubation; read-out: EC50 (μM) PPAR γ
Sequence (P37238 238-503 limits assumed): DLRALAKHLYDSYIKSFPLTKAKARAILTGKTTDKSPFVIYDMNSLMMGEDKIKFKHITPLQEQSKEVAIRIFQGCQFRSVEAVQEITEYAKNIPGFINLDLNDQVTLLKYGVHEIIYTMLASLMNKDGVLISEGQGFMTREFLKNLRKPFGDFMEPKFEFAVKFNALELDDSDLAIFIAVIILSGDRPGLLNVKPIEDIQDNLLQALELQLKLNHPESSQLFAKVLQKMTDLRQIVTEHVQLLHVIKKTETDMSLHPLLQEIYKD
Could you please report measured EC50 for the items listed next?
One number for each entry, in µM.

>>> numeric_readout("COc1cc2c(cc1CC=C(C)C)C(=O)CC(c1ccc(OC(C)=O)cc1)O2 (centres unmarked)")
12.3

Now look at this entry.
Prompt: Sample CC(=O)Oc1ccc(C2CC(=O)c3cc(CC=C(C)C)c(OC(C)=O)cc3O2)cc1 (centres unmarked) — what was its EC50?
Completion: 18.8
